From: patent US10940139B2

# SYSTEM_UNDER_TEST: KRas G12D/Q61H double mutant (Homo sapiens (Human), UniProt P01116, G12D/Q61H)
# Sequence (P01116-2 other isoform, or with tags, fused parts or gaps G12D/Q61H): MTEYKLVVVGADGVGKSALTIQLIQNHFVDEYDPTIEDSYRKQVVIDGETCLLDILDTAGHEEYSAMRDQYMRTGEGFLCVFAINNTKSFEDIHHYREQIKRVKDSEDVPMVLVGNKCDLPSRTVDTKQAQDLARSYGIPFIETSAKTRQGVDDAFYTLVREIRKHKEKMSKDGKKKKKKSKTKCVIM
# ASSAY_SUMMARY: Ras GTP binding domain inhibition assay (labeled GTP)
# RUN_PARAMETERS: at 20 μM; read-out: KRas G12D Q61H % Inh.
PROPERTY_MEASURED: inhibition at 20 µM

Worked cases, inhibition at 20 µM given:
INSERT INTO results (compound, measured_result) VALUES
  ('O=C(NCCc1cnc(O)nc1)c1csc2nc(-c3ccccn3)nc(N3CCS(=O)(=O)CC3)c12 [drawing 3726]', '25 to 50%'),
  ('N#Cc1ccc2c(c1)CCCC2C(=O)Nc1ccnc(-c2ccccn2)n1 (stereo not shown) [drawing 3727]', '51 to 75%'),
  ('Oc1nc(-c2ccccn2)nc2c(-c3ccccc3C(F)F)csc12 [drawing 3755]', '51 to 75%'),
  ('COc1ccc(N2CCN(C(=O)c3csc4c(O)nc(-c5ccccn5)nc34)CC2)cc1O [drawing 3691]', '1 to 25%'),
  ('Oc1nc(-c2ccccn2)nc2c(-c3cncc(F)c3)csc12 [drawing 3782]', '1 to 25%');

Turning to the following compound.
Returns the measured inhibition at 20 µM for the input compound. Input: Oc1nc(-c2ccccn2)nc2c(-c3ccnn3-c3ccccn3)csc12 [drawing 3776]
1 to 25%

====

Each item that follows carries a reported inhibition at 20 µM.
# SYSTEM_UNDER_TEST: KRas G12D/Q61H double mutant (Homo sapiens (Human), UniProt P01116, G12D/Q61H)
# ASSAY_SUMMARY: Ras GTP binding domain inhibition assay (labeled GTP)
# RUN_PARAMETERS: at 20 μM; read-out: KRas G12D Q61H % Inh.

Worked cases, inhibition at 20 µM given:
INSERT INTO measurements (compound, measured_result) VALUES
  ('COc1ccc(CCNC(=O)c2csc3nc(-c4ccccn4)nc(N4CCOCC4)c23)cn1 [drawing 3634]', '25 to 50%'),
  ('Cn1ccnc1-c1nc(O)c2c(-c3ccccc3)c(-c3ccccc3)sc2n1 [drawing 3854]', '1 to 25%');

Turning to the following compound.
Returns the measured inhibition at 20 µM for the input compound. Input: N#Cc1cccc(N2CCN(C(=O)c3csc4c(O)nc(-c5ccccn5)nc34)CC2)c1 [drawing 3644]
1 to 25%

====

# SYSTEM_UNDER_TEST: KRas G12D/Q61H double mutant (Homo sapiens (Human), UniProt P01116, G12D/Q61H)
# ASSAY_SUMMARY: Ras GTP binding domain inhibition assay (labeled GTP)
# RUN_PARAMETERS: 20 μM compound; read-out: % Inhibition at 20 μM KRas G12D Q61H
PROPERTY_MEASURED: inhibition at 20 µM

Worked cases, inhibition at 20 µM given:
INSERT INTO results (compound, property_measured, measured_result) VALUES
  ('O=C(Nc1cccc(C(=O)Nc2nnc(-c3ccccn3)[nH]2)c1)c1cccnc1', 'inhibition at 20 µM', '25 to 50%'),
  ('CC(C)COC(C)c1noc(CN(Cc2ccccc2O)C(C)c2ccccc2)n1 (stereo not drawn)', 'inhibition at 20 µM', '1 to 25%'),
  ('Cc1nc(-c2ccccn2)[nH]c(=O)c1CC(=O)NC1CCCCCCC1', 'inhibition at 20 µM', '51 to 75%'),
  ('CCOc1ccc(NC(=O)CN(C)Cc2coc(-c3ccc(C)cc3C)n2)cc1OCC', 'inhibition at 20 µM', '1 to 25%');

Returns the measured inhibition at 20 µM for the input compound. Input: COc1ccc(CCNC(=O)c2cc(S(=O)(=O)C3CCCCCC3)ccc2OC)cc1OC
25 to 50%

Returns the measured inhibition at 20 µM for the input compound. Input: Cc1n[nH]c(C2CN(C(C)c3ccncc3)CCO2)n1 (stereo not drawn)
25 to 50%

Returns the measured inhibition at 20 µM for the input compound. Input: COc1ccnc(CN2CCOC(C)(c3ccccc3)C2)c1OC (stereo not drawn)
25 to 50%

Returns the measured inhibition at 20 µM for the input compound. Input: O=C(Nc1nnc(-c2ccccn2)[nH]1)C1CCCN(c2ncccc2C(F)(F)F)C1 (stereo not drawn)
51 to 75%

Returns the measured inhibition at 20 µM for the input compound. Input: CC1(O)CCN(C(=O)c2csc3c(O)nc(-c4ccccn4)nc23)CC1 [drawing 2683]
25 to 50%

Returns the measured inhibition at 20 µM for the input compound. Input: COc1cnc(CNC(=O)Cn2cnc3nc(-c4ccccn4)nc(N4CCOCC4)c32)[nH]c1=O [drawing 2824]
1 to 25%

====

Each item that follows carries a reported inhibition at 20 µM.
# SYSTEM_UNDER_TEST: KRas Q61H mutant (Homo sapiens (Human), UniProt P01116, Q61H)
# Sequence (P01116-2 other isoform, or with tags, fused parts or gaps Q61H): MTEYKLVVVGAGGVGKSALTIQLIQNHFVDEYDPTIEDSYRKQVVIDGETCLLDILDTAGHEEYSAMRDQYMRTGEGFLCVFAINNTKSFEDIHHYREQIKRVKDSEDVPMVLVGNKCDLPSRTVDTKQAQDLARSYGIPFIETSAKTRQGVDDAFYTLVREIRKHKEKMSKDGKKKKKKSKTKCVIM
# ASSAY_SUMMARY: Ras GTP binding domain inhibition assay (labeled GTP)
# RUN_PARAMETERS: 20 μM compound; KRas Q61H; read-out: % Inhibition at 20 μM of K-Ras mutant and wild-type protein, KRas Q61H
# Experimental: Buffer-I: • 50 mM Tris, pH 7.5 • 150 mM NaCl (optional) • 1 mM MgCl2 • 1 mM DTT. • KRas G12D mutant protein was expressed as a His-tagged protein. […] Then 22 μl of Cy3-GTP or Cy5-GTP was added to each well. The labeled GTP was incubated for 45 min. at room temperature. • Following GTP incubation, wells were washed 3× in Buffer-I, and 200 μl of Buffer-I were added to each well. • Following washes, the amount of bound labeled-GTP was measured with an Eppendorf AF2200 plate reader. […]

Worked cases, inhibition at 20 µM given:
INSERT INTO results (compound, measured_result) VALUES
  ('Cc1sc2c(O)nc(-c3ccccn3)nc2c1C(=O)N1CCN(c2ccccc2)CC1 [drawing 3508]', '51 to 75%'),
  ('Oc1nc(-c2ccccn2)nc2c(CC3CCNCC3)csc12 [drawing 3486]', '51 to 75%'),
  ('Oc1nc(-c2ccccn2)nc2c(C3CCC3)csc12 [drawing 3478]', '51 to 75%');

Request: inhibition at 20 µM, test system KRas Q61H mutant (Homo sapiens (Human), UniProt P01116, Q61H), entry Oc1nc(-c2ccccn2)nc2c(CC3CCCNC3)csc12 (stereo not drawn) [drawing 3488]
51 to 75%

Request: inhibition at 20 µM, test system KRas Q61H mutant (Homo sapiens (Human), UniProt P01116, Q61H), entry O=C(c1csc2c(O)nc(-c3ccccn3)nc12)N1CCNC(c2ccc(Cl)cc2)C1 (stereo not drawn) [drawing 3525]
51 to 75%

====

# SYSTEM_UNDER_TEST: UniProtKB P61586
# ASSAY_SUMMARY: Rho inhibition assay (labeled GTP)
# Assay type: binding
# RUN_PARAMETERS: read-out: Rho-A % Inh.
PROPERTY_MEASURED: inhibition at 20 µM

INSERT INTO results (compound, measured_result) VALUES
  ('COc1nc(-c2cn(C)cn2)nc2sc(-c3ccncc3)c(-c3ccccc3)c12 [drawing 3849]', '51 to 75%'),
  ('O=C(COCc1ccnc(O)c1)Nc1nc(-c2ccccn2)nc2sccc12 [drawing 3729]', '51 to 75%');

Turning to the following compound.
Returns the measured inhibition at 20 µM for the input compound. Input: COc1ccnc(-c2nc(O)c3c(Cl)csc3n2)c1 [drawing 3689]
76 to 100%

====

# SYSTEM_UNDER_TEST: Rho-A (Homo sapiens (Human), UniProt P61586)
# Sequence (P61586 whole entry): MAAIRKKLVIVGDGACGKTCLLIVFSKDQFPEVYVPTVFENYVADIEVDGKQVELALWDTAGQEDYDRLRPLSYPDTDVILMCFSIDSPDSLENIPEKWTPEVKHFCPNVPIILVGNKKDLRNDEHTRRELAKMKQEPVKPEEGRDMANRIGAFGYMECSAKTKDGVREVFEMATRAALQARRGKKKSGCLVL
# ASSAY_SUMMARY: Rho inhibition assay (labeled GTP)
# Type: binding
# RUN_PARAMETERS: read-out: Rho-A % Inh.
PROPERTY_MEASURED: inhibition at 20 µM

Worked cases, inhibition at 20 µM given:
INSERT INTO results (compound, measured_result) VALUES
  ('CCn1nc(C)cc1-c1csc2c(O)nc(-c3ccccn3)nc12 [drawing 3775]', '76 to 100%'),
  ('COc1cc(CCNC(=O)c2csc3nc(-c4ccccn4)nc(N4CCOCC4)c23)ccn1 [drawing 3636]', '25 to 50%'),
  ('O=C(c1csc2c(O)nc(-c3ccccn3)nc12)N1CCN(Cc2ccc(O)cc2)CC1 [drawing 3653]', '25 to 50%'),
  ('Oc1nc(-c2ncccn2)nc2c(-c3cccc(C(F)(F)F)c3)csc12 [drawing 3926]', '51 to 75%'),
  ('COC(=O)c1csc2nc(-c3ccccn3)nc(N)c12 [drawing 3767]', '51 to 75%'),
  ('O=C(c1csc2c(O)nc(-c3ccccn3)nc12)N1CCNC(c2ccc(F)cc2)C1 (stereo not shown) [drawing 3696]', '76 to 100%'),
  ('CC(C)(C(=O)Nc1nc(-c2ccccn2)nc2sccc12)c1ccc(C#N)cc1 [drawing 3641]', '51 to 75%'),
  ('COc1cccc(C2CN(C(=O)c3csc4c(O)nc(-c5ccccn5)nc34)CCN2)c1 (stereo not shown) [drawing 3662]', '76 to 100%'),
  ('Oc1nc(-c2ccccn2)nc2cc(-c3ccccc3Cl)sc12 [drawing 3874]', '51 to 75%');

Request: inhibition at 20 µM, test system Rho-A (Homo sapiens (Human), UniProt P61586), entry O=C(c1csc2c(O)nc(-c3ccccn3)nc12)N1CCC(c2cccc(O)c2)C1 (stereo not shown) [drawing 3712]
76 to 100%
